Target: T1, human GFRα3 expressed with a C-terminal hFc tag (human)
T1 construct: also called hGFRα3-hFc
T1 sequence (chain, as listed by the source limits assumed): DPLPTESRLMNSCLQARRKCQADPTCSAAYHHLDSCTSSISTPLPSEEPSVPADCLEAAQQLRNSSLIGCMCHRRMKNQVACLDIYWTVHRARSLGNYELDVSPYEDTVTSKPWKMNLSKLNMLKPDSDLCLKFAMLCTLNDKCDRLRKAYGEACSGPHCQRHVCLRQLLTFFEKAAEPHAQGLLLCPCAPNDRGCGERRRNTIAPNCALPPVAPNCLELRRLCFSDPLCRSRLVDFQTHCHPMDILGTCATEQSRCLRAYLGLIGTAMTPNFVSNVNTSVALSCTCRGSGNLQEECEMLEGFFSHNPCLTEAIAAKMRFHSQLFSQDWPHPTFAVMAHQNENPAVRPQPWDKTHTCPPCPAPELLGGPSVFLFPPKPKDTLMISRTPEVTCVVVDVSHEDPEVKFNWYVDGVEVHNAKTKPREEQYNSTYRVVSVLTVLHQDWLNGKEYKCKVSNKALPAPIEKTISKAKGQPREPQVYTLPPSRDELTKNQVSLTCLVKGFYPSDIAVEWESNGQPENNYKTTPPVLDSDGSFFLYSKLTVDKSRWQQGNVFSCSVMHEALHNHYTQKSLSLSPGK
Assay: blocking ELISA 1, hGFRα3-hFc to coated hARTEMIN-mmH
The entries below come with measured % max blocking values attached.
Give a bare numeral; the unit % is implied.

| binder | % max blocking, % |
| --- | --- |
| H4H2354S (antibody, human IgG4, V domains shown, human IgG4 Fc (H4H); also called H4H2354S-1) VH: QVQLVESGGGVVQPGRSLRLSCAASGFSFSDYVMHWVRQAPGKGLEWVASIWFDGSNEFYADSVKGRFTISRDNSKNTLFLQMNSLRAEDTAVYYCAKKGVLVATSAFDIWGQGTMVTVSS VL: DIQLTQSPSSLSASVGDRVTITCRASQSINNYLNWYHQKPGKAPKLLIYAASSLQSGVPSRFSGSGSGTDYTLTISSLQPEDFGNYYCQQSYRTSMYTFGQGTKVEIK | 92 |

## Input Param item = H4H2352S (antibody, human IgG4, V domains shown, human IgG4 Fc (H4H); also called H4H2352S-1) VH: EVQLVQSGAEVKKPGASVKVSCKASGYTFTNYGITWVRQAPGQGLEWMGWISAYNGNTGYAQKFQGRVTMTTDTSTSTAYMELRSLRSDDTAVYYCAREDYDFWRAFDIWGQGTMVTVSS VL: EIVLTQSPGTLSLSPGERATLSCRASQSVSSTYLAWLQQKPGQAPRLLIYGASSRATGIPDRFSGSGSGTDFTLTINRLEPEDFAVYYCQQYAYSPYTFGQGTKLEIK ; retrieve measured % max blocking.
## Output 51
